Biological target: recombinant human TSG-6 (Homo sapiens, UniProt P19827+P98066)
Construct: TSG-6–mediated HC-transfer assays (using full-length TSG6); purchased R&D Systems
Sequence (P98066 18-277): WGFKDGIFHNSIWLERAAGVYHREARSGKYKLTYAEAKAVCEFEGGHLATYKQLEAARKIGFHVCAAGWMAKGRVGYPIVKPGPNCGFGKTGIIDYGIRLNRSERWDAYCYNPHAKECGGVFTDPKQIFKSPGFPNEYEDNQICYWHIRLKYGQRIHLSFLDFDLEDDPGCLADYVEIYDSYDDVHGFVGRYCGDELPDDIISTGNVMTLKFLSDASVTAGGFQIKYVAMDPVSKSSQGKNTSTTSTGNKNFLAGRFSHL
Sequence (P19827 35-672 limits assumed): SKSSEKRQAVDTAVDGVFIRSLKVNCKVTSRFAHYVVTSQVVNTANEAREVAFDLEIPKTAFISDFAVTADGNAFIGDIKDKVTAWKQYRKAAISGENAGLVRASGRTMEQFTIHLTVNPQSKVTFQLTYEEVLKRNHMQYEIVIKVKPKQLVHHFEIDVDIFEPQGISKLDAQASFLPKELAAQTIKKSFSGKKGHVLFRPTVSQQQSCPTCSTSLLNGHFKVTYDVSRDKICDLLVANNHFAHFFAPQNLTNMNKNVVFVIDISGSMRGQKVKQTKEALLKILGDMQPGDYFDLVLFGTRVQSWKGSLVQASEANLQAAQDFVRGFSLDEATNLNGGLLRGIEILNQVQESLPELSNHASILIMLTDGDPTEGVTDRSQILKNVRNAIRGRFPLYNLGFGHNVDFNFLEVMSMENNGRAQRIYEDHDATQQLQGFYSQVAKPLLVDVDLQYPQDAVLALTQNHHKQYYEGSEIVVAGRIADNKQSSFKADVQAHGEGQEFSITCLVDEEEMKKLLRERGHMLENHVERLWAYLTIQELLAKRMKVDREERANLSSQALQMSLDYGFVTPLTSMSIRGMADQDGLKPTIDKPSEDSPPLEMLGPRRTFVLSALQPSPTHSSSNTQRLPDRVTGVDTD
Assay: In vitro HC-transfer assay (IαI + rhTSG-6, Western blot anti-HC1)
Format: biochemical
Settings: Table 6; 15 μM HA, 1.8 μM IαI, rhTSG-6, 2 h at 37 °C
PROPERTY_MEASURED: Substrate for HC transfer

{"COMPOUND": "CC(=O)N[C@H]1[C@H](O[C@H]2[C@H](O)[C@@H](O)[C@H](O[C@H]3[C@H](O)[C@@H](CO)O[C@@H](O[C@H]4[C@H](O)[C@@H](O)[C@H](O[C@H]5[C@H](O)[C@@H](CO)O[C@@H](O[C@H]6[C@H](O)[C@@H](O)[C@H](O[C@@H]([C@H](O)[C@H](O)CO)[C@H](CNc7ccc8c(c7)CCC8)NC(C)=O)O[C@@H]6C(=O)O)[C@@H]5NC(C)=O)O[C@@H]4C(=O)O)[C@@H]3NC(C)=O)O[C@@H]2C(=O)O)O[C@H](CO)[C@@H](O)[C@@H]1O[C@@H]1O[C@H](C(=O)O)[C@@H](O)[C@H](O)[C@H]1O [HA8-5AI]", "OBS_VALUE": "Yes"}

Ref: paper PMC11460632
